Observed Ki values for SSTR-3 (Homo sapiens, UniProt P32745) are listed in what follows.
Answer with the value and then the unit.

COC[C@H]1O[C@@H](OCc2ccc3ccccc3c2)[C@H](NC(=O)CCN=C(N)N)[C@H](OCc2ccc3ccccc3c2)[C@@H]1O; 599 nM

Please look at the following compound next.
Q: Write down the reported Ki of COC[C@H]1O[C@H](OCc2ccc3ccccc3c2)[C@H](NC(=O)CCN)[C@H](OCc2ccc3ccccc3c2)[C@@H]1O , test system: SSTR-3 (Homo sapiens, UniProt P32745).
Sequence (P32745 whole entry): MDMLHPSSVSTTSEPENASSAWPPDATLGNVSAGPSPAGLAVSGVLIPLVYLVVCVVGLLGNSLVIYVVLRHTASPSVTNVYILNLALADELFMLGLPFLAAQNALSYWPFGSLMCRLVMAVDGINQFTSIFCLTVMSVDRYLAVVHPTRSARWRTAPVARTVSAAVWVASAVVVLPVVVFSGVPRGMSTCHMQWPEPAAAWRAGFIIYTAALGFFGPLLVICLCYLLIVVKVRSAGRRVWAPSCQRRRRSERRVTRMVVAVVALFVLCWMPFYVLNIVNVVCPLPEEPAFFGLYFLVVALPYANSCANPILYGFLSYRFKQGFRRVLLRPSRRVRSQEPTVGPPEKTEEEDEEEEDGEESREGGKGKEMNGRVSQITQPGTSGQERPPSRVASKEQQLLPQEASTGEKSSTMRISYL
Ans: 792 nM

* * *

# TEST_SUMMARY: In vivo pharmacokinetic evaluation after i.v. and p.o. administration to rats
# Design: species or system rat
# CONDITION_DESCRIPTION: rat, plasma, po, 25 mg/Kg, PO, Mean ± SD of two rats; calculated using AUC0-480; read-out: BA (oral bioavailability)
QUANTITY: bioavailability

Q: Which bioavailability value belongs to COC[C@H]1O[C@H](OCCc2ccccc2)[C@H](NC(=O)CCCN)[C@@H](OCc2ccc3ccccc3c2)[C@@H]1O ?
Ans: ~5.2%

All values here come from patent US20080280837A1.
